Numbers sourced from PubChem BioAssay AID1963831.

system: 889142-216-R-J1-PDC complex spheroid viability; experiment: Anticancer human tumor 889142-216-R-J1-PDC patient-derived bladder carcinoma cell line growth inhibition [POLQ]; settings: second compound 0.0316 µM; first compound 0.1 µM; stronger effect = lower value;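 further: spheroids exposed to compounds for seven days; 100% = DMSO vehicle control viability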
viability, T/C for assorted compounds
Numeric only. Scale: %

Solved entries:
- compound: "C=CCn1c(=O)c2cnc(Nc3ccc(N4CCN(C)CC4)cc3)nc2n1-c1cccc(C(C)(C)O)n1 + Nc1ccc(C#CCN(C(=O)Cc2ncc(C(F)(F)F)cc2C(F)(F)F)c2ccc(F)cc2)nn1"
  viability, T/C [%]: 87.2
- compound: "O=C(Nc1ccc(O)c(NS(=O)(=O)c2ccc(F)cc2)c1)c1ccc(-c2ccccc2)cc1 + Cc1cccc(N(C)C(=O)C2C(O)CCN2c2nc(C)cc(C(F)(F)F)c2C#N)c1"
  viability, T/C [%]: 106

Would you kindly look at the next entry?
Ask: State the recorded viability, T/C for this entry: Nc1ccn(C2OC(CO)C(O)C2(F)F)c(=O)n1 (stereo not drawn) + COC1C(OC(N)=O)C(O)C(Oc2ccc3c(O)c(NC(=O)c4ccc(O)c(CC=C(C)C)c4)c(=O)oc3c2C)OC1(C)C
Reply: 49.5
